Target: DNA polymerase beta I260Q (UniProt P06766 1-335, I260Q)
Experiment: EMSA
PROPERTY NAME: pKd
Remember, pKd is on a log scale: it is -log10 of the molar concentration.

Just so you know, measured pKd for CII5T A:A (5 nt gap, mispaired primer terminus) (dsDNA, 5'-phosphate on downstream oligo and template) DNA 1: TTGCGACTTATCAACGCCCACAA DNA 2: GCTGTCTTCTCAGTTTC DNA 3: GAAACTGAGAAGACAGCTACTGATGTGGGCGTTGATAAGTCGCAA came out at 8.70

Where do these numbers come from? They come from paper PMC2597655.
